# measurementTarget: WT EGFR kinase (residues 696-1022) (human, UniProt P00533 696-1022)
# method: kinase inhibition kinetics
pKi: −log10 of the molar value.
readoutKind: pKi

Query string: For the binder shown here, unphosphorylated Mig6 segment 1+2 (residues 330-399) (domain or fragment, human, UniProt Q9UJM3 330-399, looked up) SRTPSPKSLPSYLNGVMPPTQSFAPDPKYVSSKALQRQNSEGSASKVPCILPIIENGKKVSSTHYYLLPE , give the reported pKi.
Result string: 7.70 to 8.00
